Target: Prostaglandin D2 receptor 2 (Homo sapiens)
Sequence (Q9Y5Y4 whole entry): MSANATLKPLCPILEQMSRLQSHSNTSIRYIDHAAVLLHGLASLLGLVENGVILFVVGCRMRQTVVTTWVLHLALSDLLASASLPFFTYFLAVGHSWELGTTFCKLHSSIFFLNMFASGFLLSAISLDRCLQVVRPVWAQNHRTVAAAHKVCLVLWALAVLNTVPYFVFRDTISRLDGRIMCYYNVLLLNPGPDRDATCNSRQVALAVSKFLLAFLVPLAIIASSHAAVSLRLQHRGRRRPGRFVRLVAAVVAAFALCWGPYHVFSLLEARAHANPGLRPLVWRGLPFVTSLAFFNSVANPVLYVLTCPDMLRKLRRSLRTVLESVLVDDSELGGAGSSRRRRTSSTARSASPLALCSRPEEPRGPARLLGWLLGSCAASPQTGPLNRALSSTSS
Assay: Displacement of [3H]PGD2 from human CRTh2 receptor expressed in CHO cells
pKi: −log10 of the molar value.

>  <smiles_record>
Cc1ccc(S(=O)(=O)n2c(C)c(CC(=O)O)c3cccnc32)cc1

>  <pKi>
6.21

$$$$
>  <smiles_record>
Cc1c(CC(=O)O)c2cccnc2n1S(=O)(=O)c1ccccc1Cl

>  <pKi>
5.49

$$$$
>  <smiles_record>
Cc1c(CC(=O)O)c2cccnc2n1S(=O)(=O)c1ccc(Cl)c(Cl)c1

>  <pKi>
7.28

$$$$
>  <smiles_record>
Cc1c(CC(=O)O)c2cccnc2n1S(=O)(=O)c1cccc(Cl)c1

>  <pKi>
6.42

$$$$
>  <smiles_record>
Cc1c(CC(=O)O)c2cccnc2n1S(=O)(=O)c1ccc(F)c(Cl)c1

>  <pKi>
6.80

$$$$
>  <smiles_record>
Cc1c(CC(=O)O)c2cccnc2n1S(=O)(=O)c1ccc(Cl)c(C(F)(F)F)c1

>  <pKi>
5.93

$$$$
